Tested on: HCV replicon 1a WT
test summary: Cell-based HCV replicon assay, genotype 1a WT
Parameters: species or system Hepatitis C virus
run parameters: replicon cells, day 3, replicon RNA by real time PCR (Taqman)
endpoint label: EC50 (pM)

* COC(=O)NC(C(=O)N1CCC[C@@H]1c1ncc(-c2ccc3c(c2)c(F)c2n3CCOc3cc(-c4cnc(C5CCCN5C(=O)[C@@H](NC(=O)OC)C(C)C)[nH]4)ccc3-2)[nH]1)C(C)C (stereo partly shown) [Compound 11] | 10
* COC(=O)NC(C(=O)N1CCC[C@H]1c1ncc(-c2ccc3c(c2)c(F)c2n3CCOc3cc(-c4cnc(C5CCCN5C(=O)[C@@H](NC(=O)OC)C(C)C)[nH]4)ccc3-2)[nH]1)C(C)C (stereo partly shown) [Compound 8] | 16
* COC(=O)NC(C(=O)N1CCC[C@@H]1c1ncc(-c2ccc3c(c2)c(F)c2n3CCOc3cc(-c4cnc(C5CCCN5C(=O)[C@@H](NC(=O)OC)C(C)C)[nH]4)ccc3-2)[nH]1)C(C)C (stereo partly shown) [Compound 10] | 2000
* COC(=O)NC(C(=O)N1CCC[C@H]1c1ncc(-c2ccc3c(c2)c(F)c2n3CCOc3cc(-c4cnc(C5CCCN5C(=O)[C@@H](NC(=O)OC)C(C)C)[nH]4)ccc3-2)[nH]1)C(C)C (stereo partly shown) [Compound 9] | 1180

* * *

// values below are reported EC50
Tested on: HCV replicon 1b WT
test summary: Cell-based HCV replicon assay, genotype 1b WT
Parameters: species or system Hepatitis C virus
run parameters: Hepatitis C virus, 72 h, replicon cells, day 3, replicon RNA by real time PCR (Taqman)
endpoint label: EC50 (pM)

* COC(=O)N[C@H](C(=O)N1CCC[C@H]1c1ncc(-c2ccc3c(c2)OCCc2c-3oc3ccc(-c4cnc([C@@H]5CCCN5C(=O)[C@@H](NC(=O)OC)C(C)C)[nH]4)cc23)[nH]1)C(C)C [Compound 5] | 1
* COC(=O)NC(C(=O)N1CCC[C@H]1c1ncc(-c2ccc3c(c2)cc2n3CCOc3cc(-c4cnc(C5CCCN5C(=O)[C@@H](NC(=O)OC)C(C)C)[nH]4)ccc3-2)[nH]1)C(C)C (some centres unmarked) [Compound 7] | 3
